Test system: HCV
Test: Anti-HCV effect in vitro, intracellular HCV RNA by real-time RT-PCR in infected Huh7.5 cells
Assay type: cell-based, hepatitis C virus
Conditions: HCV-infected Huh7.5 cells, 72 h, real-time RT-PCR; read-out: EC50 (concentration required to inhibit HCV growth by 50%)
PROPERTY: EC50 (µM)
Please reply with the bare figure in µM and do not write the unit itself.

# example entries with known answers
Cl.Cl.OCCCCC1C2CCCN3CCCC(CN1Cc1ccc(Cl)cn1)C23 (stereo not shown) [7 g] | 10.9
COC(=O)C/C=C\[C@@H]1[C@H]2CCCN3CCC[C@@H](CN1Cc1ccc(F)cc1)[C@@H]23.Cl.Cl [13b] | 18.1
OCCCCC1C2CCCN3CCCC(CN1Cc1cccnc1)C23 (stereo not shown) [7f, 12N-(Pyridin-3-ylmethyl)matrinol] | 4.39
COC(=O)C/C=C\C1C2CCCN3CCCC(CN1Cc1ccc(OC)cc1)C23 (stereo not shown) [13a] | 16.7
Cl.Cl.OCCCC[C@@H]1[C@H]2CCCN3CCC[C@@H](CN1Cc1ccncc1)[C@@H]23 [7e] | 9.03

Recorded EC50 (molecule COC(=O)CCC[C@@H]1[C@H]2CCCN3CCC[C@@H](CN1Cc1ccc(C)cc1)[C@@H]23 [6b, Methyl 12N-(4-methylbenzyl)matrinate] ): 1.73

Recorded EC50 (molecule COC(=O)CCC[C@@H]1[C@H]2CCCN3CCC[C@@H](CN1Cc1ccc(OC)cc1)[C@@H]23.Cl.Cl [6a] ): 7.01

====

System: HCV
Test: Anti-HCV effect in vitro, intracellular HCV RNA by real-time RT-PCR in infected Huh7.5 cells
Assay type: cell-based, hepatitis C virus
Settings: Huh7.5 cells
Entries and their measured SI (ratio of CC50 to EC50) follow.

The compound OCCCC[C@@H]1[C@H]2CCCN3CCC[C@@H](CN1Cc1ccc(F)cc1)[C@@H]23 [3a] , when measured on HCV, yielded SI (ratio of CC50 to EC50) of 95.3

The compound O=C(CN1C[C@@H]2CCCN3CCC[C@@H]([C@H]23)[C@H]1CCCCO)Nc1ccccc1 [7 h, 12N-(2-Oxo-2-(phenylamino)ethyl)matrinol] , when measured on HCV, yielded SI (ratio of CC50 to EC50) of > 10.7

The compound COc1ccc(CN2C[C@@H]3CCCN4CCC[C@@H]([C@H]34)[C@H]2CCCC(=O)O)cc1 [compound 1, 12N-4-methoxylbenzyl matrinic acid] , when measured on HCV, yielded SI (ratio of CC50 to EC50) of > 22.8

====

Assay: Cytotoxicity assay (MTT) in Huh7.5 cells
Assay type: cell-based, human
Details: human
PROPERTY: CC50 at 72 h (µM)
Please reply with the bare figure in µM and do not write the unit itself.

Recorded CC50 at 72 h (compound CCC[C@H](NC(=O)[C@@H]1[C@H]2CCC[C@H]2CN1C(=O)[C@@H](NC(=O)[C@@H](NC(=O)c1cnccn1)C1CCCCC1)C(C)(C)C)C(=O)C(=O)NC1CC1 [Tela, telaprevir, reference compound] ): 47.6

====

Entries and their measured CC50 follow.
Test system: Huh7.5 cells
Test: Cytotoxicity assay (MTT) in Huh7.5 cells
Assay type: cell-based, human
Procedure: All the target compounds were evaluated for their anti-HCV activities (EC50) and cytotoxicities (CC50) in human Huh7.5 cells using specific real-time RT-PCR assay, as described earlier. As an important indicator, the selectivity index (SI) was calculated as a ratio of CC50 to EC50. […] Huh7.5 cells were seeded into 96-well plates (Costar) at a density of 3 × 10^4 cells cm^−2. […] 72 h later, cytotoxicity was evaluated with 3-(4,5-dimethylthiazol-2-yl)-2,5-diphenyltetrazolium bromide (MTT).
Please reply with the bare figure in µM and do not write the unit itself.

CC(C)(O)CCCC1C2CCCN3CCCC(CN1Cc1ccc(F)cc1F)C23.Cl.Cl (centres unmarked) [10d] | 156
CCCCCCCN1C[C@@H]2CCCN3CCC[C@@H]([C@H]23)[C@H]1CCCCO | 33.3

The molecule "COC(=O)CCC[C@@H]1[C@H]2CCCN3CCC[C@@H](CN1Cc1ccc(OC)cc1)[C@@H]23.Cl.Cl" , when measured on Huh7.5 cells, yielded CC50 of 414

The molecule Cl.Cl.O=C(CN1CC2CCCN3CCCC(C1CCCCO)C23)Nc1ccc(C(F)(F)F)cc1 (centres unmarked) , when measured on Huh7.5 cells, yielded CC50 of 86.2

====

Entries and their measured SI (ratio of CC50 to EC50) follow.
System: HCV
Experiment: Anti-HCV effect in vitro, intracellular HCV RNA by real-time RT-PCR in infected Huh7.5 cells
Type: cell-based, hepatitis C virus
Conditions: Huh7.5 cells
Just the number, please, no unit after it.

CCCC[C@@H]1[C@H]2CCCN3CCC[C@@H](CN1Cc1ccc(OC)cc1)[C@@H]23 [compound 9, 12N-4-methoxybenzyl matrinic butane] | 36.1
COC(=O)CCC[C@@H]1[C@H]2CCCN3CCC[C@@H](CN1Cc1ccc(OC)cc1)[C@@H]23.Cl.Cl [6a] | 59.1
CCCCCCCN1C[C@@H]2CCCN3CCC[C@@H]([C@H]23)[C@H]1CCCCO [3c] | 32.9
CCC[C@H](NC(=O)[C@@H]1[C@H]2CCC[C@H]2CN1C(=O)[C@@H](NC(=O)[C@@H](NC(=O)c1cnccn1)C1CCCCC1)C(C)(C)C)C(=O)C(=O)NC1CC1 [Tela, telaprevir, reference compound] | 1950
COC(=O)CCC[C@@H]1[C@H]2CCCN3CCC[C@@H](CN1Cc1ccc(F)cc1F)[C@@H]23 [6d, Methyl 12N-(2,4-difluorobenzyl)matrinate] | 154

Next up:
Recorded SI (ratio of CC50 to EC50) (compound COC(=O)CCC[C@@H]1[C@H]2CCCN3CCC[C@@H](CN1Cc1ccc(F)cc1)[C@@H]23 [compound 2] ): 131

====

Tested on: HCV
Experiment: Anti-HCV effect in vitro, intracellular HCV RNA by real-time RT-PCR in infected Huh7.5 cells
Format: cell-based, hepatitis C virus
Conditions: Hepatitis C virus; HCV-infected Huh7.5 cells, 72 h, real-time RT-PCR; read-out: EC50 (concentration required to inhibit HCV growth by 50%)
PROPERTY: EC50
Put down the number, then write its unit next to it.

Recorded EC50 (molecule COc1ccc(CN2C[C@@H]3CCCN4CCC[C@@H]([C@H]34)[C@H]2CCCC(=O)O)cc1 [compound 1, 12N-4-methoxylbenzyl matrinic acid] ): 43.8 µM

====

Tested on: Huh7.5 cells
Experiment: Cytotoxicity assay (MTT) in Huh7.5 cells
Assay type: cell-based, human
PROPERTY: CC50 (µM)
Please reply with the bare figure in µM and do not write the unit itself.

Recorded CC50 (molecule CCC(O)(CC)CCC[C@@H]1[C@H]2CCCN3CCC[C@@H](CN1Cc1ccc(C)cc1)[C@@H]23.Cl.Cl [10c] ): 12.3

Recorded CC50 (molecule COC(=O)C/C=C\[C@@H]1[C@H]2CCCN3CCC[C@@H](CN1Cc1ccc(F)cc1)[C@@H]23.Cl.Cl [13b] ): 260

Recorded CC50 (molecule COc1ccc(CN2CC3CCCN4CCCC(C2/C=C\CCO)C34)cc1.Cl.Cl (stereo not shown) [14a] ): 214

====

Entries and their measured pEC50 follow.
Tested on: HCV
Test: Anti-HCV effect in vitro, intracellular HCV RNA by real-time RT-PCR in infected Huh7.5 cells
Assay type: cell-based, hepatitis C virus
Details: HCV-infected Huh7.5 cells, 72 h, real-time RT-PCR; read-out: EC50 (concentration required to inhibit HCV growth by 50%)
Procedure: All the target compounds were evaluated for their anti-HCV activities (EC50) and cytotoxicities (CC50) in human Huh7.5 cells using specific real-time RT-PCR assay, as described earlier. As an important indicator, the selectivity index (SI) was calculated as a ratio of CC50 to EC50. Anti-HCV ability of a given compound was estimated by combining its EC50 with SI values. […]
Please report pEC50 as the negative decimal logarithm of the molar concentration, giving only the number.

COC(=O)CCC[C@@H]1[C@H]2CCCN3CCC[C@@H](CN1Cc1ccc(F)cc1F)[C@@H]23 [6d, Methyl 12N-(2,4-difluorobenzyl)matrinate] | 5.77
CC(C)(O)CCC[C@@H]1[C@H]2CCCN3CCC[C@@H](CN1Cc1ccncc1)[C@@H]23 [10e] | 4.09

Recorded pEC50 (molecule COC(=O)CCC[C@@H]1[C@H]2CCCN3CCC[C@@H](CN1Cc1ccncc1)[C@@H]23 [6f, Methyl 12N-(pyridin-4-ylmethyl)matrinate] ): 5.33

====

Entries and their measured SI (ratio of CC50 to EC50) follow.
System: HCV
Experiment: Anti-HCV effect in vitro, intracellular HCV RNA by real-time RT-PCR in infected Huh7.5 cells
Assay type: cell-based, hepatitis C virus
Conditions: Huh7.5 cells
Just the number, please, no unit after it.

# example entries with known answers
COc1ccc(CN2CC3CCCN4CCCC(C2/C=C\CCO)C34)cc1.Cl.Cl (stereo not shown) [14a] | 24.3
COc1ccc(CN2C[C@@H]3CCCN4CCC[C@@H]([C@H]34)[C@H]2CCCC(C)(C)O)cc1.Cl.Cl [10a] | 12.0

Next up:
Recorded SI (ratio of CC50 to EC50) (compound C=Cc1ccc(CN2C[C@@H]3CCCN4CCC[C@@H]([C@H]34)[C@H]2CCCC(=O)OC)cc1 [6c, Methyl 12N-(4-vinylbenzyl)matrinate] ): 50.4
